- target_system: Human recombinant OX2 receptors (Homo sapiens, UniProt O43614)
- Sequence (O43614 1-444): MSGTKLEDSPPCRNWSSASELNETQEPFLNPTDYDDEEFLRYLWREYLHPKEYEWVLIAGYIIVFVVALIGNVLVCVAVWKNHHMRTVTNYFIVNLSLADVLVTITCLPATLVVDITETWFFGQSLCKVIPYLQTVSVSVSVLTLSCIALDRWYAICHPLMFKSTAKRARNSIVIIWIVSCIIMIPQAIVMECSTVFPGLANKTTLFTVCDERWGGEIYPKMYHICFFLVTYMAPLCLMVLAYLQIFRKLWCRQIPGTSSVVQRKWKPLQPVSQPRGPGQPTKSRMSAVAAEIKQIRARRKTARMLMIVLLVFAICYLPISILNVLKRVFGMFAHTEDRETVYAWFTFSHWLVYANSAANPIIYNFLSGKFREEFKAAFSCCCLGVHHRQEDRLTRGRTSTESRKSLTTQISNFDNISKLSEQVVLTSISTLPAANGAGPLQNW
- test_summary: Human Orexin GPCR Binding (Agonist Radioligand) Assay, [125I] Orexin A competition
- settings: competition binding against [^125I] orexin; read-out: IC50 OX2R
observed_property: pIC50
By convention, pIC50 is the negative base-10 log of a molar concentration.

Ask: Report pIC50 for COc1ccnc(N2CCC3(CCCN(Cc4cn(C)c5ccccc45)C3=O)CC2)n1 please.
Reply: 5.85
